Just for reference, ChEMBL document CHEMBL2401653 is where these values come from.

assay: Half life in po dosed rat; format: ADME, organism-based; conditions: in vivo
measured-attribute: log10 of half-life (log10 of the value in h)
// stored as log10 of half-life expressed in h

Consider the following illustrative entries.
compound: CCOC(=O)c1cc(C#N)c(N2CCN(C(=O)NS(=O)(=O)c3ccc(Cl)s3)C(CCC(=O)O)C2)nc1C(F)(F)F (racemic)
log10 of half-life: 0.60
//
compound: CCOC(=O)c1cc(C#N)c(N2CCN(C(=O)NS(=O)(=O)c3ccc(C)cc3)CC2)nc1C(F)(F)F
log10 of half-life: -0.19

Qu. Please look at this compound and report its log10 of half-life: `CCOC(=O)c1cnc(N2CC(NC(=O)NS(=O)(=O)c3ccccc3)C2)c(Cl)c1`
Ans. 0.32

Qu. Look up and state reported log10 of half-life for `CCOC(=O)c1cc(C#N)c(N2CC(NC(=O)NS(=O)(=O)c3ccccc3)C2)nc1C`
Ans. 0.95

Qu. Return reported log10 of half-life. Input compound: `CCOC(=O)c1cnc(N2CCN(C(=O)NS(=O)(=O)c3ccc(Cl)s3)CC2)c(Cl)c1`
Ans. 0.38

Qu. Consider the compound `CCOC(=O)c1cc(C#N)c(N2CC(NC(=O)NS(=O)(=O)Cc3ccccc3)C2)nc1C` and give its recorded log10 of half-life.
Ans. 0.11

###

experiment: Stability of the compound in MeCN assessed as compound remaining at room temperature; assay type: physicochemical
measured-attribute: Stability

Worked examples follow.
input-smiles: CCOC(=O)c1cc(C#N)c(N2CCN(C(=O)NS(=O)(=O)c3ccc(C)cc3)CC2)nc1C(F)(F)F
Stability: Stable

input-smiles: CCOC(=O)c1cc(C#N)c(N2CCN(C(=O)NS(=O)(=O)c3ccc(Cl)cc3)CC2)nc1C(F)(F)F
Stability: Stable

input-smiles: CCOC(=O)c1ccc(N2CCN(C(=O)NS(=O)(=O)c3ccc(Cl)s3)CC2)c(Cl)c1
Stability: Stable

input-smiles: C=C(NC(=O)N1CCN(c2ncc(C(=O)OCC)cc2Cl)CC1)c1ccccc1
Stability: Stable

input-smiles: CCOC(=O)c1cnc(N2CCC(NC(=O)NS(=O)(=O)c3ccccc3)CC2)c(Cl)c1
Stability: Stable

Qu. Tell us which Stability value is on record for `CCOC(=O)c1cnc(N2CCN(C(=O)NS(=O)(=O)c3ccc(Cl)s3)CC2)c(Cl)c1`
Ans. Stable

Qu. Please give the documented Stability of `CCOC(=O)c1cc(C#N)c(N2C[C@@H]3C[C@H]2CN3C(=O)NS(=O)(=O)c2ccc(Cl)s2)nc1C`
Ans. Stable

Qu. Determine from records and report Stability for `CCOC(=O)c1cc(C#N)c(N2CCN(C(=O)NS(=O)(=O)c3ccccc3C)CC2)nc1C(F)(F)F`
Ans. Stable

###

assay: Clearance in iv dosed rat; type: ADME, organism-based; conditions: in vivo
measured-attribute: clearance (mL/min/kg)
Numbers only; they are read as mL/min/kg.

Qu. Return the recorded clearance value; entry: `CCOC(=O)c1cc(C#N)c(N2CC(NC(=O)NS(=O)(=O)Cc3ccccc3)C2)nc1C`
Ans. 31

Qu. Return value of clearance for input `CCOC(=O)c1cnc(N2CCN(C(=O)NS(=O)(=O)c3ccc(Cl)s3)CC2)c(Cl)c1` , no commentary.
Ans. 36

Qu. Fill in clearance for record `CCOC(=O)c1cc(C#N)c(N2CC(NC(=O)NS(=O)(=O)c3ccccc3)C2)nc1C`
Ans. 13

Qu. Please supply the value of reported clearance for the item CCOC(=O)c1cc(C#N)c(N2CCN(C(=O)NS(=O)(=O)c3ccc(Cl)s3)C(CCC(=O)O)C2)nc1C(F)(F)F (racemic)
Ans. 46

Qu. Fill in reported clearance for this entry: `CCOC(=O)c1cc(C#N)c(N2CCN(C(=O)NS(=O)(=O)c3ccc(C)cc3)CC2)nc1C(F)(F)F`
Ans. 89

Qu. Let me know recorded clearance for `CCOC(=O)c1cnc(N2CC(NC(=O)NS(=O)(=O)c3ccccc3)C2)c(Cl)c1` , thanks.
Ans. 29

###

experiment: 1-octanol-phosphate buffer distribution coefficient, log D of the compound at pH 7.4 after 2 days by shake flask method; assay type: physicochemical
measured-attribute: logD at 48 h
// keep it numeric: no unit symbol after the value

Example results:
molecule: CCOC(=O)c1cc(C#N)c(N2CCC(NC(=O)NS(=O)(=O)Cc3ccccc3)CC2)nc1C
logD at 48 h: 1.9
//
molecule: CCOC(=O)c1cc(C#N)c(N2CCN(C(=O)NCCc3cccs3)CC2)nc1C(F)(F)F
logD at 48 h: 5
//
molecule: O=C(c1cnc(N2CCN(C(=O)NS(=O)(=O)c3ccc(Cl)s3)CC2)c(Cl)c1)C1CC1
logD at 48 h: 1.2

We now examine a further molecule.
Qu. Return value of logD at 48 h for input `CCOC(=O)c1cnc(N2CC(NC(=O)NS(=O)(=O)c3ccccc3)C2)c(Cl)c1` , no commentary.
Ans. 0.8

###

tested on: Liver microsomes; assay: Intrinsic clearance in human liver microsomes at 1 umol/L by LC/MS analysis in presence of NADPH; type: ADME, Microsome; details: 1 µM
measured-attribute: Intrinsic clearance (CLint)

Some compounds with recorded Intrinsic clearance (CLint):
compound: CCOC(=O)c1cc(C#N)c(N2CCN(C(=O)NS(=O)(=O)c3ccc(Cl)s3)C(CCC(=O)O)C2)nc1C(F)(F)F (racemic)
measured-attribute: Intrinsic clearance (CLint)
readout-value: < 13 µL/min/mg

compound: CC(C)OC(=O)c1cnc(N2CCN(C(=O)NS(=O)(=O)c3ccc(Cl)s3)CC2)c(Cl)c1
measured-attribute: Intrinsic clearance (CLint)
readout-value: > 70 µL/min/mg

compound: O=C(c1cnc(N2CCN(C(=O)NS(=O)(=O)c3ccc(Cl)s3)CC2)c(Cl)c1)C1CC1
measured-attribute: Intrinsic clearance (CLint)
readout-value: < 13 µL/min/mg

compound: CCOC(=O)c1cc(C#N)c(N2CCN(C(=O)NS(=O)(=O)Cc3ccccc3)CC2)nc1C
measured-attribute: Intrinsic clearance (CLint)
readout-value: < 13 µL/min/mg

compound: CCOC(=O)c1cc(C#N)c(N2CC(NC(=O)NS(=O)(=O)c3ccc(Cl)cc3)C2)nc1C
measured-attribute: Intrinsic clearance (CLint)
readout-value: < 13 µL/min/mg

Qu. Recall and state the measured Intrinsic clearance (CLint) for `CCOC(=O)c1cc(C#N)c(N2CCN(C(=O)NS(=O)(=O)c3ccc(Cl)cc3)CC2)nc1C(F)(F)F` .
Ans. > 70 µL/min/mg

Qu. Determine from records and report Intrinsic clearance (CLint) for `CCOC(=O)c1cc(C#N)c(N2CCN(C(=O)NS(=O)(=O)c3ccccc3)CC2)nc1C(F)(F)F`
Ans. > 70 µL/min/mg

Qu. Specify measured Intrinsic clearance (CLint) for `CCOC(=O)c1cnc(N2CCN(C(=O)NS(=O)(=O)c3ccccc3)CC2)c(Cl)c1` .
Ans. > 70 µL/min/mg

###

target: UniProt Q9H244
For each record, check the reported IC50: if it is below 3000 nM write Y, else write N.

Consider the following illustrative entries.
input-smiles: CCOC(=O)c1cc(C#N)c(N2CCN(C(=O)NCCc3cccs3)CC2)nc1C(F)(F)F
target-or-system: UniProt Q9H244
label: Y

input-smiles: CCOC(=O)c1cnc(N2CCN(C(=O)NC(=O)c3ccccc3)CC2)c(Cl)c1
target-or-system: UniProt Q9H244
label: N

Qu. Strictly below 3000 nM: is that where IC50 of `CCOC(=O)c1cc(C#N)c(N2CCN(C(=O)NS(=O)(=O)c3ccc(C)cc3)CC2)nc1C(F)(F)F` sits?
Ans. Y

Qu. Just wondering, is IC50 of `CCOC(=O)c1cc(C#N)c(N2CCN(C(=O)NS(=O)(=O)c3ccccc3)CC2)nc1C` below 3000 nM?
Ans. Y

Qu. Bench note: check whether `CCOC(=O)c1cnc(N2CCC(NC(=O)NS(=O)(=O)c3ccccc3)CC2)c(Cl)c1` shows IC50 below 3000 nM
Ans. N

###

This document collects pIC50 values reported for P2Y purinoceptor 12 (Homo sapiens, UniProt Q9H244).
# reply with the number alone; pIC50 is -log10 of concentration in mol/L

Please review the following examples before continuing.
input-smiles: CCOC(=O)c1cc(C#N)c(N2CCN(C(=O)NCCc3cccs3)CC2)nc1C(F)(F)F
pIC50: 5.89
//
input-smiles: CCOC(=O)c1cc(C#N)c(N2CCN(C(=O)NS(=O)(=O)c3ccc(Cl)cc3)CC2)nc1C(F)(F)F
pIC50: 7.17
//
input-smiles: CCOC(=O)c1cc(C#N)c(N2CCC(NC(=O)NS(=O)(=O)c3ccc(Cl)s3)CC2)nc1C
pIC50: 7.57
//
input-smiles: CC(C)OC(=O)c1cnc(N2CCN(C(=O)NS(=O)(=O)c3ccc(Cl)s3)CC2)c(Cl)c1
pIC50: 6.60
//
input-smiles: CCCOC(=O)c1cnc(N2CCN(C(=O)NS(=O)(=O)c3ccc(Cl)s3)CC2)c(Cl)c1
pIC50: 6.68

Qu. Kindly indicate its recorded pIC50. Item: `CCOC(=O)c1cnc(N2CCN(C(=O)NS(=O)(=O)c3ccccc3Cl)CC2)c(Cl)c1`
Ans. 6.06

Qu. Supply pIC50 value. Item: `COC(=O)c1cnc(N2CCN(C(=O)NS(=O)(=O)c3ccc(Cl)s3)CC2)c(Cl)c1`
Ans. 6.19

Qu. Fill in reported pIC50 for this entry: `O=C(c1cnc(N2CCN(C(=O)NS(=O)(=O)c3ccc(Cl)s3)CC2)c(Cl)c1)C1CC1`
Ans. 6.38

Qu. Supply pIC50 value. Item: `CCOC(=O)c1ccc(N2CCN(C(=O)NS(=O)(=O)c3ccc(Cl)s3)CC2)c(Cl)c1`
Ans. 6.18
